Documented median fluorescence fold over isotype control across a set of binders
Target: SARS-CoV-2 full length spike protein, D614G mutant (SARS-CoV-2, UniProt P0DTC2 14-1273)
Reported Endpoint: median fluorescence fold over isotype control (fold over isotype)

[
  {
    "Binder": "antibody 440 (antibody, V domains shown) VH: EVQLLESGGGLVQPGGSLRLSCAASGFTFSSYAMSWVRQAPGKGLEWVSAISGSGVNTYHADSVKGRFTISRDNSRNTLYLQMSSLTAEDTAAYYCAKDFEAASGAYYYYGMDVWGQGTTVTVSS VL: SYELTQPPSVSVSPGQTARITCSGDALPDQYAYWYQQKPGQAPVVVIYKDRERPSGIPERFSGSNSGTTVTLTISGVQAEDEADYYCQSADSSATYVVFGGGTKLTVL",
    "Readout Value": 15.8
  },
  {
    "Binder": "antibody 448 (antibody, V domains shown) VH: QVQLVQSGAEVKKPGASVKVSCKASGYTFTSYGISWVRQAPGQGLEWMGWISAYNGNTNYAQKLQGRVTMTTDTSTSTAYMELRSLRSDDTAVYYCAIELLEGFYYYYGMDVWGQGTTVTVSS VL: SYELTQPPSVSVSPGQTARITCSGDALPKQYAYWYQQKPGQAPVLVIYKDSERPSGIPERFSGSSSGTTVTLTISGVQAEDEADYYCQSADSSGTYPYVVFGGGTKLTVL",
    "Readout Value": 13.3
  },
  {
    "Binder": "antibody 441 (antibody, V domains shown) VH: EVQLVESGGGVVRPGGSLRLSCAASGFTFGDYGMSWVRQAPGKGLEWVSGINWNGGSTGYADSVKGRFTISRDNAKNSLYLQMNSLRAEDTALYYCASDLVRGVIGFDYWGQGTLVTVSS VL: SYELTQPPSVSVSPGQTARITCSGDALPKQYAYWYQQKPGQAPVLVIYKDSERPSGIPERFSGSSSGTTVTLTISGVQAEDEADYYCQSADSSGITGVFGGGTKLTVL",
    "Readout Value": 14.9
  }
]
